Test system: 276233-004-R-J1-PDC KRAS spheroids with HUVEC/MSC, viability;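 further: cells exposed to agents for seven days before viability read; 100% = DMSO vehicle control wells and lower values mean fewer viable cells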
Test description: Anticancer human tumor 276233-004-R-J1-PDC patient-derived colon adenocarcinoma cell line growth inhibition [KRAS2]
Condition set: second compound 0.316 µM; first compound 0.1 µM; active compounds read low
// NB: equality with 90% counts as no (0); only viability, T/C strictly below is yes (1)

Ask: Strictly below 90% in viability, T/C? COc1cc(Nc2ncc3c(n2)-c2ccc(Cl)cc2C(c2c(F)cccc2OC)=NC3)ccc1C(=O)O + COc1cc2nc(C)nc(NC(C)c3cc(N)cc(C(F)(F)F)c3)c2cc1OC1CCOC1
Reply: yes (1)

Ask: Strictly below 90%: is that where viability, T/C of O=C(c1cc(Cc2n[nH]c(=O)c3ccccc23)ccc1F)N1CCN(C(=O)C2CC2)CC1 + C=CC(=O)N1CCN(c2nc(OCC3CCCN3C)nc3c2CCN(c2cccc4cccc(C)c24)C3)CC1CC#N sits?
Reply: no (0)

Ask: is_below(viability, T/C, 90%) for CCNC(=O)CC1N=C(c2ccc(Cl)cc2)c2cc(OC)ccc2-n2c(C)nnc21 (stereo not given) + C=CC(=O)N1CCN(c2nc(OCC3CCCN3C)nc3c2CCN(c2cccc4cccc(C)c24)C3)CC1CC#N ?
Reply: yes (1)

Ask: Just wondering, is viability, T/C of CC1OCC2(CCN(c3cnc(Sc4ccnc(N)c4Cl)c(N)n3)CC2)C1N (stereo not given) + COc1cc2nc(C)nc(NC(C)c3cc(N)cc(C(F)(F)F)c3)c2cc1OC1CCOC1 below 90%?
Reply: yes (1)
